Test system: HT-29
Assay overview: Antiproliferative activity against human HT-29 cells assessed as inhibition of cell growth after 48 hrs by MTT assay
Type: functional, cell-based
Setup conditions: HT-29, 48 h
pIC50: −log10 of the molar value.
Measurement kind: pIC50

What the record says about `C[C@]1(CC#N)C(C#N)=CC[C@@H]2[C@@H]1CC[C@@]1(C)[C@H]2CC[C@@]1(O)Cc1ccccn1` : pIC50 is 4.14

Item: `C[C@]12CC[C@H](O)CC1=CC[C@@H]1[C@@H]2CC[C@]2(C)/C(=C/c3ccccn3)CC[C@@H]12` | pIC50: < 4.00

For this compound ( `C[C@]12C/C(=C/O)C(=O)C=C1CC[C@@H]1[C@@H]2CC[C@]2(C)/C(=C/c3ccccn3)CC[C@@H]12` ), measured pIC50 is < 4.00

What the record says about `C[C@]12CCC(=O)C=C1CC[C@@H]1[C@@H]2CC[C@@]2(C)[C@H]1CC[C@@]2(O)Cc1ccccn1` : pIC50 is < 4.00

Per the record, `C[C@]12C/C(=C/O)C(=O)C=C1CC[C@@H]1[C@@H]2CC[C@@]2(C)[C@H]1CC[C@@]2(O)Cc1ccccn1` has pIC50 of < 4.00

Short answer for `C[C@]12C/C(=N/O)C(=O)/C(=N\O)C1=CC[C@@H]1[C@@H]2CC[C@@]2(C)[C@H]1CC[C@@]2(O)Cc1ccccn1` : pIC50 was 4.25

====

Tested on: A549
Assay overview: Antiproliferative activity against human A549 cells assessed as inhibition of cell growth after 48 hrs by MTT assay
Format: functional, cell-based
Setup conditions: A549, 48 h
Assign IC50 to each entry below.
API: value field is a number in µM; no unit string.

Consider `C[C@]12C/C(=N/O)C(=O)/C(=N\O)C1=CC[C@@H]1[C@@H]2CC[C@@]2(C)[C@H]1CC[C@@]2(O)Cc1ccccn1` . Its measured IC50 is 10.3

IC50 measured on `C[C@]12CCC(=O)C=C1CC[C@@H]1[C@@H]2CC[C@@]2(C)[C@H]1CC[C@@]2(O)Cc1ccccn1` = 57.5

Short answer for `C[C@]12CCNC(=O)C=C1CC[C@@H]1[C@@H]2CC[C@]2(C)/C(=C/c3ccccn3)CC[C@@H]12` : IC50 was 19.8

====

Tested on: A549
Assay overview: Antiproliferative activity against human A549 cells assessed as inhibition of cell growth after 48 hrs by MTT assay
Assay type: functional, cell-based
Setup conditions: A549, 48 h
Measurement kind: IC50

Form: molecule = `C[C@]12C/C(=N\O)C(=O)c3noc(c31)C[C@@H]1[C@@H]2CC[C@@]2(C)[C@H]1CC[C@@]2(O)Cc1ccccn1` ; IC50 = > 100 µM

Lookup result for `C[C@]12C/C(=C/O)C(=O)C=C1CC[C@@H]1[C@@H]2CC[C@@]2(C)[C@H]1CC[C@@]2(O)Cc1ccccn1` ; measured IC50: > 100 µM

`C[C@]1(CC#N)C(C#N)=CC[C@@H]2[C@@H]1CC[C@@]1(C)[C@H]2CC[C@@]1(O)Cc1ccccn1` yielded IC50 of > 100 µM

The molecule identified as `C[C@]12CC[C@H](O)CC1=CC[C@@H]1[C@@H]2CC[C@@]2(C)[C@H]1CC[C@@]2(O)Cc1ccccn1` registered its IC50 at > 100 µM

Looking up C[C@]12CCC(=O)C(O)=C1CC[C@@H]1[C@@H]2CC[C@]2(C)C(=O)CC[C@@H]12 [FORMESTANE] , I found its IC50 recorded as > 100 µM

Value of measured IC50 for the entry COc1cccc2c1C(=O)c1c(O)c3c(c(O)c1C2=O)C[C@@](O)(C(=O)CO)C[C@@H]3O[C@H]1C[C@H](N)[C@H](O)[C@H](C)O1 [DOXORUBICIN] : 0.32 µM
